Origin of the recorded values: patent US7879792

- EXPERIMENTAL SYSTEM: human α-thrombin (human)
- TEST PROTOCOL: inhibition of α-thrombin hydrolysis of Sar-Pro-Arg-paranitroanilide; Ki from Ki,app by the procedure of Bieth
MEASURED ATTRIBUTE: Ki (µM)
Give the value in µM but do not write µM after it.

Quick one: Ki for rOicPaF(p-NO2) (D-Arg-Oic-Pro-D-Ala-Phe(p-NO2)) (peptide) ?
10.6

----------
- EXPERIMENTAL SYSTEM: human γ-thrombin (human) (UniProt P00734)
- TEST PROTOCOL: inhibition of γ-thrombin hydrolysis of Sar-Pro-Arg-paranitroanilide; Ki from Ki,app by the procedure of Bieth
MEASURED ATTRIBUTE: pKi
Please note pKi is a logarithmic value: minus log10 of concentration in mol/L. Answer with that number alone.

[[record]]
substance = "rOicPaF(p-NO2) (D-Arg-Oic-Pro-D-Ala-Phe(p-NO2)) (peptide)"
endpoint_result = 4.06

[[record]]
substance = "rOicPaF(p-Me) (D-Arg-Oic-Pro-D-Ala-Phe(p-Me)) (peptide)"
endpoint_result = 4.27

[[record]]
substance = "rOicPaF(p-Br) (D-Arg-Oic-Pro-D-Ala-Phe(p-Br)) (peptide)"
endpoint_result = 4.31

[[record]]
substance = "rOicPsF(p-Me) (D-Arg-Oic-Pro-D-Ser-Phe(p-Me)) (peptide)"
endpoint_result = 4.37


Quick one: pKi for rOicPaF(p-I) (D-Arg-Oic-Pro-D-Ala-Phe(p-I)) (peptide) ?
4.23
